Assay remarks: Tissue distribution test in mice
Assay type: in vivo
Design: unit not given here
Applied conditions: 16 mg/kg subcutaneous injection, 5.0 h
Recorded content in the brain (tissue distribution) for the following compounds
Experimental endpoint: content in the brain (tissue distribution)

[
  {
    "Chemical string": "O=C(Nc1ccccc1)C1CCN(C(=O)c2ccc(Oc3ccccc3)cc2)CC1",
    "Test value": 0.9
  },
  {
    "Chemical string": "O=C(Nc1cccc(Cl)c1)C1CCN(C(=O)c2cccc(O)c2)CC1",
    "Test value": 1.3
  },
  {
    "Chemical string": "O=C(Nc1cccc(Cl)c1)C1CCN(C(=O)c2ccc(Oc3ccccc3)cc2)CC1",
    "Test value": 16.9
  },
  {
    "Chemical string": "O=C(Nc1cccc(Cl)c1)C1CCN(C(=O)c2ccc3ccccc3c2)CC1",
    "Test value": 4.8
  },
  {
    "Chemical string": "Cc1cc(C)cc(NC(=O)C2CCN(C(=O)c3ccc(Oc4ccccc4)cc3)CC2)c1",
    "Test value": 3.7
  }
]
